Test Target: Rap guanine nucleotide exchange factor 4 (Homo sapiens) (UniProt Q8WZA2)
Sequence (Q8WZA2 whole entry, looked up): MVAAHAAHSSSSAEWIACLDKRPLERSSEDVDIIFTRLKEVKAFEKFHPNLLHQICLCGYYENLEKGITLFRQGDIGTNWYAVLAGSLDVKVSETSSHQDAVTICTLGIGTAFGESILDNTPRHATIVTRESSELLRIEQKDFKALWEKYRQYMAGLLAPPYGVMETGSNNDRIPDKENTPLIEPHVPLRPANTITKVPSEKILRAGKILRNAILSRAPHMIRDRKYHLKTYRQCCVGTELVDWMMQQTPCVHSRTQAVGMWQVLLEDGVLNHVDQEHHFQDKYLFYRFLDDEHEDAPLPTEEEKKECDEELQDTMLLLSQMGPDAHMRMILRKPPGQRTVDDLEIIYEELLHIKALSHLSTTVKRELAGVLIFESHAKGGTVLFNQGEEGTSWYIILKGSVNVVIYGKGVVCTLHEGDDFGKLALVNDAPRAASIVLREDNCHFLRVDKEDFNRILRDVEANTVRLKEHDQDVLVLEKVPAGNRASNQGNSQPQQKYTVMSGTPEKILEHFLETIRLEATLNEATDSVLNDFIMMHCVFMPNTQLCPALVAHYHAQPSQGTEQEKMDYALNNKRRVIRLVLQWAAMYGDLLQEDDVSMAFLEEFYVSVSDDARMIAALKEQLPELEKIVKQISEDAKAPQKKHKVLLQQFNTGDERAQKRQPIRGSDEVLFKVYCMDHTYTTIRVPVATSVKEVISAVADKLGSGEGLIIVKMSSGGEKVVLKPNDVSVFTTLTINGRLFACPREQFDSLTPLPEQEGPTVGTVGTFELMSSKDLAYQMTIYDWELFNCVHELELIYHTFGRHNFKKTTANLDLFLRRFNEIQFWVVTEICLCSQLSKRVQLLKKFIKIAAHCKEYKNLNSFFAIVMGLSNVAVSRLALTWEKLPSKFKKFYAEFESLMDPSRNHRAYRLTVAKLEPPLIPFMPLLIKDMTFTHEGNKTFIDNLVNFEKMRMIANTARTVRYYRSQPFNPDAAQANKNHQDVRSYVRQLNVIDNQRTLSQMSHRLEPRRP
Assay Notes: Confirmatory qHTS for antagonist of cAMP-regulated guanine nucleotide exchange factor 4 (EPAC2) (AID 1645885); further: nearly all actives have a fitted effect of over 25% in size
Cond: EPAC2 Rap1B-BODIPY-GDP exchange fluorescence, biochemical; series mostly up to 12.7 µM
Results filed as inconclusive are left out. The source made the active and inactive calls. The call rests on the fitted dose curve; in most records, active means well fitted inhibition curve with a large enough effect; inconclusive means small, poorly fitted or top-dose-only effect; inactive means no such curve, though single readings can be large or run the other way.
Log the outcome using a class from Yes for active, No for inactive

{"Compound": "N#C/C(=C\\c1ccc(O)c([N+](=O)[O-])c1)c1nc2ccccc2s1", "Test Target": "Rap guanine nucleotide exchange factor 4 (Homo sapiens) (UniProt Q8WZA2)", "Label": "No"}
{"Compound": "CCCCN(Cc1ccc(C(=O)N[C@H](C(=O)O)C(C)C)cc1)C(=O)C(c1ccccc1)c1ccccc1", "Test Target": "Rap guanine nucleotide exchange factor 4 (Homo sapiens) (UniProt Q8WZA2)", "Label": "No"}
{"Compound": "C[C@@H](c1ccccc1)N1Cc2ccccc2Oc2cc(Br)ccc2S1(=O)=O", "Test Target": "Rap guanine nucleotide exchange factor 4 (Homo sapiens) (UniProt Q8WZA2)", "Label": "Yes"}
{"Compound": "COC1=NC(=C(c2ccccc2)c2ccccc2)OC1=O", "Test Target": "Rap guanine nucleotide exchange factor 4 (Homo sapiens) (UniProt Q8WZA2)", "Label": "Yes"}
{"Compound": "N#CC1=C(O)C(c2ccccc2)n2c1nc(=O)c1ccccc12 (configuration not stated)", "Test Target": "Rap guanine nucleotide exchange factor 4 (Homo sapiens) (UniProt Q8WZA2)", "Label": "No"}
{"Compound": "CN(CC(=O)Nc1cccc(F)c1)C(=O)CN1c2cccc3cccc(c23)S1(=O)=O", "Test Target": "Rap guanine nucleotide exchange factor 4 (Homo sapiens) (UniProt Q8WZA2)", "Label": "No"}
{"Compound": "O=C(COC(=O)c1ccc(O)cc1O)Nc1nnc(-c2ccccc2)o1", "Test Target": "Rap guanine nucleotide exchange factor 4 (Homo sapiens) (UniProt Q8WZA2)", "Label": "Yes"}
{"Compound": "COc1ccc2oc(C(=O)CCC(=O)O)c(N)c2c1", "Test Target": "Rap guanine nucleotide exchange factor 4 (Homo sapiens) (UniProt Q8WZA2)", "Label": "No"}

Recorded test call requested for CCC(=O)N1CCc2cc(OC)c(OC)cc2C1COc1ccccc1OC (configuration not stated)
No

Repeat with COCCOC(=O)C(C#N)c1nc2ccccc2nc1N1CCN(Cc2ccccc2)CC1 (configuration not stated)
No

Repeat with COc1ccc(-c2n[nH]c3c2C(c2ccc(Cl)cc2Cl)NC3=O)cc1 (configuration not stated)
No

###

Assay Notes: NFAT Signaling Pathway (AID 444);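 further: carbachol stimulus at about its EC50 of 1 µM final; on the % scale 0 is the no-effect control and ±100 the full control effect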
Cond: Jurkat NFAT-bla M1, carbachol, beta-lactamase ratio, 5 h; at 17.2 µM (top of the series) unless noted
Records with an inconclusive call do not appear. Calls of active or inactive are those of the source. Calls come from the whole dose curve; as a rule, active = well fitted curve in either direction with a large enough effect (not every such curve was filed as active); inconclusive = small, poorly fitted or top-dose-only effect, or another doubt; inactive = flat fitted curve, though single readings scatter.
Result Type: activity change, negative = inhibition

For every record below, what is its activity change, negative = inhibition?
1. CN1CC[C@@]23c4ccccc4N[C@H]1[C@]21CCN(C)[C@@H]3Nc2ccccc21
2. CCOC(=O)[C@H](CCc1ccccc1)N[C@@H](C)C(=O)N1[C@H](C(=O)O)C[C@H]2CCC[C@@H]21
3. C[C@@]12CC[C@H]3[C@@H](CCC4=CC(=O)CC[C@]43C)[C@H]1CC[C@H]2C(=O)CO
4. C/C(=C(/CCO)SSC[C@@H]1CCCO1)N(C=O)Cc1cnc(C)nc1N
5. NC[C@@H]1O[C@H](O[C@H]2[C@H](O)[C@H](O[C@@H]3O[C@H](CO)[C@@H](O)[C@H](N)[C@@H]3O)[C@@H](N)C[C@H]2N)[C@@H](O)[C@H](O)[C@@H]1O
6. CC(=O)CC(=O)[C@@]1(O)CC[C@@H]2[C@@H]3C=C(C)C4=CC(=O)CC[C@@H]4[C@H]3CC[C@]21C
7. CNC[C@H](O)c1ccc(OC(=O)C(C)(C)C)c(OC(=O)C(C)(C)C)c1
8. NC(=O)N/N=C\c1ccc([N+](=O)[O-])o1

-9.09% (inactive)
-18.7% (inactive)
-6.24% (inactive)
-21.3% (inactive)
-3.83% (inactive)
-13.4% (inactive)
1.95% (inactive)
-5.34% (inactive)

For every record below, what is its activity change, negative = inhibition?
1. O[C@@](CCN1CCCC1)(c1ccccc1)C1CCCCC1
2. CC[C@H](C)C(=O)O[C@@H]1C[C@H](C)C=C2C=C[C@H](C)[C@@H](CC[C@H]3C[C@@H](O)CC(=O)O3)[C@H]21
3. CC(C)CC(=O)N[C@H](C(=O)N[C@H](C(=O)N[C@@H](CC(C)C)[C@H](O)CC(=O)N[C@@H](C)C(=O)N[C@@H](CC(C)C)[C@H](O)CC(=O)O)C(C)C)C(C)C

1: -61.1% (active); 2: 11.4% (inactive); 3: -1.98% (inactive)

For every record below, what is its activity change, negative = inhibition?
1. NC(=O)c1cc[n+](CC2=C(C(=O)[O-])N3C(=O)[C@@H](NC(=O)Cc4cccs4)[C@@H]3SC2)cc1
2. C1CCN2C[C@@H]3C[C@@H](CN4CCCC[C@H]34)[C@H]2C1
3. CC(C)(C)CC(C)(C)c1ccc(OCOCCOCCO)c(Cc2cc(C(C)(C)CC(C)(C)C)cc(Cc3cc(C(C)(C)CC(C)(C)C)ccc3OCOCCOCCO)c2OCOCCOCCO)c1
4. CC(=O)[C@@]1(O)CC[C@H]2[C@H]3C[C@@H](C)C4=CC(=O)C=C[C@]4(C)[C@@]3(F)[C@@H](O)C[C@]21C
5. CC1(C)O[C@@H]2C[C@H]3[C@H]4C[C@H](F)C5=CC(=O)CC[C@]5(C)[C@@H]4[C@H](O)C[C@]3(C)[C@]2(C(=O)CO)O1
6. CCCC(=O)Nc1ncnc2c1ncn2[C@@H]1O[C@H]2COP(=O)(O)O[C@@H]2[C@@H]1OC(=O)CCC
7. CNC[C@H](O)[C@H](O)[C@H](O)[C@H](O)CO
8. CO[C@H]1[C@@H](OC(N)=O)[C@H](O)[C@@H](Oc2ccc3c(O)c(NC(=O)c4ccc(O)c(CC=C(C)C)c4)c(=O)oc3c2C)OC1(C)C

-11% (inactive)
-16.7% (inactive)
-20.3% (inactive)
5.97% (inactive)
-4.77% (inactive)
16.7% (inactive)
3.99% (inactive)
-13.7% (inactive)

For every record below, what is its activity change, negative = inhibition?
1. Fc1ccc(Nc2nc(-c3cccnc3)nc3ccccc23)cc1
2. N[C@H](Cc1cc(I)c(Oc2cc(I)c(O)c(I)c2)c(I)c1)C(=O)O
3. CO[C@@H]1C[C@H](O[C@H]2[C@@H](C)[C@H](O[C@@H]3O[C@@H](C)C[C@@H](N(C)C)[C@@H]3OC(C)=O)[C@H](C)C[C@]3(CO3)C(=O)[C@H](C)[C@H](OC(C)=O)[C@H](C)[C@H](C)OC(=O)[C@@H]2C)O[C@H](C)[C@@H]1OC(C)=O
4. CO[C@H]1C=CO[C@]2(C)Oc3c(C)c(O)c4c(O)c(c5c(c4c3C2=O)NC2(CCN(CC(C)C)CC2)N=5)=NC(=O)C(C)=CC=C[C@@H](C)[C@@H](O)[C@@H](C)[C@@H](O)[C@@H](C)[C@@H](OC(C)=O)[C@@H]1C
5. CC(=O)OCC(=O)[C@@]1(O)CC[C@@H]2[C@H]3CCC4=CC(=O)C=C[C@]4(C)[C@]3(F)[C@@H](O)C[C@@]21C

1. -9.74% [at 7.69 µM] (inactive)
2. -8.92% (inactive)
3. 11.7% (inactive)
4. -15% (inactive)
5. -2.98% (inactive)

###

System: CP217
Assay Notes: qHTS profiling for inhibitors of Plasmodium falciparum proliferation (AID 504749); further: nearly all actives have a fitted effect of over 60% in size
Cond: P. falciparum in erythrocytes, SYBR Green DNA, 72 h; series mostly up to 12.8 µM
Records with an inconclusive call do not appear. Calls of active or inactive are those of the source. Calls come from the whole dose curve; as a rule, active = well fitted inhibition curve with a large enough effect; inconclusive = small, poorly fitted or top-dose-only effect; inactive = flat fitted curve, though single readings scatter.
Log the outcome using a class from label 1 for active, label 0 for inactive

Worked set:
{"Compound": "CC1(C)O[C@H]2C[C@@H]3[C@H]4CCC5=CC(=O)CC[C@@]5(C)[C@]4(F)[C@@H](O)C[C@@]3(C)[C@@]2(C(=O)CCl)O1", "Label": "label 1"}
{"Compound": "CNC1CC(N)[C@H](O)[C@@H](O[C@@H]2OC(CO)C3OC4(OC(C(N)CO)C(O)C(O)C4O)O[C@@H]3[C@H]2O)C1O (some centres undefined)", "Label": "label 0"}
{"Compound": "O=C1O[C@@H]([C@@H](O)CO)[C@@H](O)[C@H]1O", "Label": "label 0"}
{"Compound": "C=CC1=C(C(=O)O)N2C(=O)[C@@H](NC(=O)/C(=N\\OCC(=O)O)c3csc(N)n3)[C@@H]2SC1", "Label": "label 0"}
{"Compound": "COc1ccc2cc(C(C)CO)ccc2c1 (centres undefined)", "Label": "label 0"}
{"Compound": "CC(C)(C)NC[C@H](O)COc1cccc2c1C[C@@H](O)[C@@H](O)C2", "Label": "label 0"}
{"Compound": "CC(C)=CCC[C@](C)(O)C1CC=C(C)CC1 (some centres undefined)", "Label": "label 0"}
{"Compound": "C[C@]1(c2ccccc2)OC(C(=O)O)=CC1=O", "Label": "label 0"}

Turning to the following compound.
Recorded test call requested for CCOC(=O)[C@H](CCc1ccccc1)N[C@@H](C)C(=O)N1[C@H](C(=O)O)C[C@H]2CCC[C@@H]21
label 0
